Listed below: selectivity index SI = EC2x(Kv7.4/Kv7.5)/EC2x(Kv7.2/Kv7.3) values for each entry.
# ASSAY_SYSTEM: Kv7.2/Kv7.3 (Homo sapiens, UniProt O43525+O43526)
# Construct: expressed in transfected cells; host or cells: HEK293
# ASSAY_PROCEDURE: Automated electrophysiology IonWorks Barracuda (IWB) agonist assay in HEK293 cells, Kv7.2/Kv7.3
# Assay type: cell-based
# TEST_SETTINGS: higher SI = better selectivity for Kv7.2/Kv7.3
MEASURE_NAME: selectivity index SI = EC2x(Kv7.4/Kv7.5)/EC2x(Kv7.2/Kv7.3)

COMPOUND: Nc1c(NC(=O)OC2CC2)ccc(NCc2ccc(C(F)(F)F)cc2)c1F [RL-56]
ASSAY_SYSTEM: Kv7.2/Kv7.3 (Homo sapiens, UniProt O43525+O43526)
COMPARISON_OPERATOR: =
MEAS_VALUE: 2.5
--
COMPOUND: CCOC(=O)Nc1ccc(NCc2ccc(C(F)(F)F)cc2F)c(F)c1N [RL-18]
ASSAY_SYSTEM: Kv7.2/Kv7.3 (Homo sapiens, UniProt O43525+O43526)
COMPARISON_OPERATOR: =
MEAS_VALUE: 1.7
--
COMPOUND: CCOC(=O)Nc1ccc(NCc2ccc(F)cc2)nc1N [flupirtine, reference compound]
ASSAY_SYSTEM: Kv7.2/Kv7.3 (Homo sapiens, UniProt O43525+O43526)
COMPARISON_OPERATOR: =
MEAS_VALUE: 1.8
--
COMPOUND: CC(C)OC(=O)Nc1ccc(NCc2ccc(C(F)(F)F)cc2)c(F)c1N [RL-32]
ASSAY_SYSTEM: Kv7.2/Kv7.3 (Homo sapiens, UniProt O43525+O43526)
COMPARISON_OPERATOR: =
MEAS_VALUE: 31
--
COMPOUND: Nc1c(F)c(NCc2ncc(C(F)(F)F)cc2F)cc(F)c1NC(=O)OC1CC1 [RL-12]
ASSAY_SYSTEM: Kv7.2/Kv7.3 (Homo sapiens, UniProt O43525+O43526)
COMPARISON_OPERATOR: >
MEAS_VALUE: 10
--
COMPOUND: Nc1c(F)c(NCc2ccc(C(F)(F)F)cc2F)cc(F)c1NC(=O)OC1CC1 [RL-46]
ASSAY_SYSTEM: Kv7.2/Kv7.3 (Homo sapiens, UniProt O43525+O43526)
COMPARISON_OPERATOR: >
MEAS_VALUE: 7
--
COMPOUND: CCOC(=O)Nc1ccc(NCc2cccc(C(F)(F)F)c2)c(F)c1N [RL-73]
ASSAY_SYSTEM: Kv7.2/Kv7.3 (Homo sapiens, UniProt O43525+O43526)
COMPARISON_OPERATOR: =
MEAS_VALUE: 4.7
--
COMPOUND: CCOC(=O)Nc1ccc(NCc2cccc(S(F)(F)(F)(F)F)c2)c(F)c1N [RL-02]
ASSAY_SYSTEM: Kv7.2/Kv7.3 (Homo sapiens, UniProt O43525+O43526)
COMPARISON_OPERATOR: =
MEAS_VALUE: 1.8
--
COMPOUND: Nc1c(NC(=O)OC2CC2)cc(F)c(NCc2ccc(C(F)(F)F)cc2F)c1F [RL-36]
ASSAY_SYSTEM: Kv7.2/Kv7.3 (Homo sapiens, UniProt O43525+O43526)
COMPARISON_OPERATOR: >
MEAS_VALUE: 10
--
COMPOUND: CCOC(=O)Nc1cc(F)c(NCc2ccc(C(F)(F)F)cc2)cc1N [RL-72]
ASSAY_SYSTEM: Kv7.2/Kv7.3 (Homo sapiens, UniProt O43525+O43526)
COMPARISON_OPERATOR: >
MEAS_VALUE: 7
--
COMPOUND: CCOC(=O)Nc1ccc(NCc2ccc(C(F)(F)F)cc2)c(F)c1N [RL-81]
ASSAY_SYSTEM: Kv7.2/Kv7.3 (Homo sapiens, UniProt O43525+O43526)
COMPARISON_OPERATOR: =
MEAS_VALUE: 0.3
